Data provenance: paper PMC9090415

Overview of recorded % inhibition apPOL 180' for various compounds
Molecular target: P. falciparum apicoplast DNA polymerase (Pf-apPOL) (Plasmodium falciparum, UniProt Q8ILY1)
Sequence (Q8ILY1 entry or part of it): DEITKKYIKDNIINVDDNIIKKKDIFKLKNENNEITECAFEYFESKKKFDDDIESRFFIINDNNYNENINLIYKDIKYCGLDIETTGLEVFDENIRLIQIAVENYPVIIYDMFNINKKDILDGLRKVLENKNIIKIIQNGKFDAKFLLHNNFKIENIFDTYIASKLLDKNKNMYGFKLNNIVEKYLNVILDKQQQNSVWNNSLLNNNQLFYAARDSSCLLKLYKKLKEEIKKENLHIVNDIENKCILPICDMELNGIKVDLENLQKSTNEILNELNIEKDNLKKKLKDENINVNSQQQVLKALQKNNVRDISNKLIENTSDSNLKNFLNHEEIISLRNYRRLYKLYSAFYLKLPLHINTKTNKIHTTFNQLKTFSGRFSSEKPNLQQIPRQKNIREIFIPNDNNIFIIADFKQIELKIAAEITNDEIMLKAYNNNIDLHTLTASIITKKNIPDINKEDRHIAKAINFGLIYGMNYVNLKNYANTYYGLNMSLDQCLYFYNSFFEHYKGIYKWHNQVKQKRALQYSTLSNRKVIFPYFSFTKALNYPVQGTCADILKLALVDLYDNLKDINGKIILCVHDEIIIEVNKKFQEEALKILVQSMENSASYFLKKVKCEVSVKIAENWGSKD
Assay: Fluorescence-based high-throughput DNA polymerase assay (molecular beacon), primary screen and dose-response;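 further: test concentration in µM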
Format: biochemical
Conditions: DRC-1; 180'; concentration 20
QUANTITY: % inhibition apPOL 180'

| COMPOUND | QUANTITY | OBS_VALUE |
| --- | --- | --- |
| COc1ccc2c(c1)CCc1c-2nc2ccc(Br)cc2c1C(=O)O [KU0059417] | % inhibition apPOL 180' | 30.8503% |
| O=C(Cc1cc(=O)[nH]c(SCc2ccccc2)n1)Nc1ccc2c(c1)OCO2 [Molecule 46] | % inhibition apPOL 180' | 25.3173% |
| COc1ccc(NC(=O)Cn2ccc3c(=O)[nH]ccc32)cc1 [Molecule 13, COc1ccc(cc1)NC(=O)Cn1ccc2c1cc[nH]c2=O] | % inhibition apPOL 180' | 60.6819% |
| CCN1C(=O)C(=Cc2cccc(OC)c2O)SC1=S [Molecule 78, CCN1C(=S)SC(=Cc2cccc(c2O)OC)C1=O] | % inhibition apPOL 180' | 33.831% |
